# Tested on: MCF-7 (estrogen receptor positive breast cancer cells)
# EXPERIMENT DESCRIPTION: Anti-proliferation assay (MTS/PMS, 72 h), MCF-7
# Assay type: cell-based
# ASSAY CONDITIONS: Homo sapiens, MCF7; Table 2, modified benzamide and biphenylamide derivatives (in μM); read-out: MCF-7
# strict inequality: IC50 < 0.5 µM yields 1, everything else yields -1

The following compounds have reported results that may help.
## Input Quick check: does `CC(C)=CCc1cc(C(=O)Nc2cc3ccc(OC4CCN(C)CC4)c(C)c3oc2=O)ccc1O` have IC50 under 0.5 µM?
## Output -1

## Input Answer whether the compound `CC(C)=CCc1cc(C(=O)Nc2cc3ccc(OC4CCN(C)CC4)c(C)c3oc2=O)ccc1OC1CCN(C)CC1` has IC50 strictly less than 0.5 µM
## Output 1

## Input Please determine if `CC(C)=CCc1cc(C(=O)Nc2cc3ccc(OC4CCN(C)CC4)c(C)c3oc2=O)ccc1OCCCN(C)C` is below 0.5 µM in terms of IC50.
## Output 1

## Input Does the reported IC50 of COc1cccc(-c2cc(C(=O)Nc3cc4ccc(OC5CCN(C)CC5)c(C)c4oc3=O)ccc2OC(C)=O)c1 [Compound 32a] stay below 0.5 µM?
## Output -1

## Input Could you please tell me whether IC50 recorded for COc1cccc(-c2cc(C(=O)Nc3cc4ccc(OC5CCN(C)CC5)c(C)c4oc3=O)ccc2O)c1 [Compound 33a] is less than 0.5 µM?
## Output -1

More entries:
## Input Would you kindly verify if IC50 of `CC(C)=CCc1cc(C(=O)Nc2cc3ccc(OC4CCN(C)CC4)c(C)c3oc2=O)ccc1OCCN(C)C` is strictly less than 0.5 µM?
## Output -1

## Input Please indicate whether the reported IC50 of COc1ccc(C(=O)Nc2cc3ccc(OC4CCN(C)CC4)c(C)c3oc2=O)cc1-c1cccc(OC(C)=O)c1 [Compound 32b] is strictly below 0.5 µM.
## Output 1

## Input Is 0.5 µM strictly greater than the compound's reported IC50? compound: COc1ccc(C(=O)Nc2cc3ccc(OC4CCN(C)CC4)c(C)c3oc2=O)cc1-c1cccc(O)c1 [Compound 33b]
## Output 1
